This collection of values is drawn from patent US20250027068.

- Target: pooled human IgG (human IgG1,2,3 and 4)
Parameter Enzyme Activity Endpoint Assay: scIgG: see the listing below.
Measurement kind: Enzyme Activity Endpoint Assay: scIgG (ng/µL)

{"Protein": "PRT-323 (protein) MTITSVWTKGVTPPTPEDFRENNEDVLHAPYVANQGWYDITKTFDGKDNLLCGAATAGNMLHWWFDQNKEEIERYLKKHPEKQKIIFNNQEWFDVKAAIDTKDSQTNSKLFNYFRDKAFPNLSARQLGVMPDLVLDMFINGYYLNLPKTQSTDVNRPYQDKDKRGGIFDAVFTRGDQTTLLTARHDLKNKGLNEISDLIKQELTEGKALALSHTYANVRINHVINLWGADFDAEGNLIAIYVTDSDANASIGMKKYAVGVNANGKVAISAKKIEGDNIGAQVLGLFTLSTGQDIWQKLS", "Value unit": "ng/µL", "Recorded number": 743}
{"Protein": "PRT-454 (protein) MITSVWTKGVTPPTDFIKGEDVFHAPYKAGQGWYDITKAFDGGDDLLCGAATAGNMLHWWFDQNKDQIEAYLKEHPEKQKINFNGEQMFDVKEAIDTKDDQTNSELFNYFKEKAFPYLSTKHLGVFPDHVLDMFINGYRLSLTNHGPTPVKRQEKDPRGGIFDAVFGRGDQTKLLTSRHDFKEKTLNEISQLIKQELTEGKALALSHTYANVRINHVINLWGADFDAEGNLEAIYVTDSDSNASIGMKKYFVGVNSAGKVAISAKEIEDDNIGAQVLGLFTLSTGQKIWNKTNLEHHHHHH", "Value unit": "ng/µL", "Recorded number": 653}
